Tested on: MDA-MB-231
Assay: Antiproliferative activity against human MDA-MB-231 cells after 48 hrs by MTT assay
Type: functional, cell-based
Conditions: MDA-MB-231, 48 h
PARAMETER_MEASURED: IC50 (µM)
Express your answer in µM, writing the number without its unit.

Query string: Name the reported IC50 value associated with the compound C/C=C(/CO)[C@H]1C[C@@H]2c3[nH]c4ccccc4c3C[C@H]3N2C(=O)[C@@]13COC
Result string: 1.84

---

Test system: K562
Experiment: Antiproliferative activity against human K562 cells after 48 hrs by MTT assay
Type: functional, cell-based
Settings: K562, 48 h
PARAMETER_MEASURED: IC50 (nM)
Give the number; nM is assumed, so skip it.

Query string: // returns reported IC50 for input C/C=C(/CO)[C@H]1C[C@@H]2c3[nH]c4ccccc4c3C[C@H]3N2C(=O)[C@@]13COC
Result string: 1220

Numbers sourced from ChEMBL document CHEMBL4002635.
